Tested on: 653999-131-R-J2-PDC complex spheroid viability
Assay: Anticancer human tumor 653999-131-R-J2-PDC patient-derived lung adenocarcinoma cell line growth inhibition
Details: second compound 10 µM; first compound 0.00316 µM; hits give low values
Measured viability, T/C of individual entries

Solved cases (2 shown):
| COMPOUND | TEST VALUE |
| --- | --- |
| CC(C)CC(NC(=O)C(Cc1ccccc1)NC(=O)c1cnccn1)B(O)O (stereo unspecified) + NC1CC1c1ccc(-c2cccc(O)c2)cc1 | 9.61% |
| Cn1ncnc1C1c2n[nH]c(=O)c3cc(F)cc(c23)NC1c1ccc(F)cc1 (stereo unspecified) + NC1CCC(NC2CC2c2ccccc2)CC1 | 97.6% |

Lab note: next compound to report on.
Notebook: Nc1ncn(C2CC(O)C(CO)O2)c(=O)n1 (stereo unspecified) + NC1CC1c1ccc(-c2cccc(O)c2)cc1 , viability, T/C read as 94.3%

* * *

Tested on: 653999-131-R-J2-PDC complex spheroid viability
Assay: Anticancer human tumor 653999-131-R-J2-PDC cell line growth inhibition;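 note: spheroids exposed to agents for seven days before readout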
Conditions: second compound 0.316 µM; first compound 0.003 µM; hits give low values
Define the label as MET when viability, T/C is strictly less than 80% and as NOT MET in all remaining cases.

| COMPOUND | CAT |
| --- | --- |
| Nc1ccn(C2OC(CO)C(O)C2(F)F)c(=O)n1 (stereo unspecified) + NC1CCC(NC2CC2c2ccccc2)CC1 | MET |

Does the reported viability, T/C of Nc1ccn(C2OC(CO)C(O)C2(F)F)c(=O)n1 (stereo unspecified) + NC1CC1c1ccc(-c2cccc(O)c2)cc1 stay below 80%? MET

Does the reported viability, T/C of CCc1c2c(nc3ccc(O)cc13)-c1cc3c(c(=O)n1C2)COC(=O)[C@]3(O)CC + NC1CC1c1ccc(-c2cccc(O)c2)cc1 stay below 80%? MET

Does the reported viability, T/C of Nc1ncn(C2CC(O)C(CO)S2)c(=O)n1 (stereo unspecified) + NC1CC1c1ccc(-c2cccc(O)c2)cc1 stay below 80%? NOT MET

Does the reported viability, T/C of CCc1c2c(nc3ccc(O)cc13)-c1cc3c(c(=O)n1C2)COC(=O)[C@]3(O)CC + NC1CCC(NC2CC2c2ccccc2)CC1 stay below 80%? MET

* * *

System: 653999-131-R-J2-PDC complex spheroid viability
Test: Anticancer human tumor 653999-131-R-J2-PDC cell line growth inhibition;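 note: spheroids exposed to agents for seven days before readout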
Details: second compound 1 µM; first compound 0.316 µM; hits give low values
Note that class boundaries on viability, T/C are bin A = under 70%, bin B = from 70% up to 90%, bin C = 90% and over

Study these solved cases before continuing.
| COMPOUND | CAT |
| --- | --- |
| O=C(C=Cn1cnc(-c2cc(C(F)(F)F)cc(C(F)(F)F)c2)n1)NNc1cnccn1 + NC1CCC(NC2CC2c2ccccc2)CC1 | bin A |
| Nc1ncn(C2CC(O)C(CO)O2)c(=O)n1 (stereo unspecified) + NC1CCC(NC2CC2c2ccccc2)CC1 | bin B |
| CC(C)c1c(-c2ccccc2)nc2c(C#N)c[nH]n2c1=O + NC1CC1c1ccc(-c2cccc(O)c2)cc1 | bin B |
| CC1(C)CCC(CN2CCN(c3ccc(C(=O)NS(=O)(=O)c4ccc(NCC5CCOCC5)c([N+](=O)[O-])c4)c(Oc4cnc5[nH]ccc5c4)c3)CC2)=C(c2ccc(Cl)cc2)C1 + NC1CC1c1ccc(-c2cccc(O)c2)cc1 | bin C |
| CC1(C)CCC(CN2CCN(c3ccc(C(=O)NS(=O)(=O)c4ccc(NCC5CCOCC5)c([N+](=O)[O-])c4)c(Oc4cnc5[nH]ccc5c4)c3)CC2)=C(c2ccc(Cl)cc2)C1 + NC1CCC(NC2CC2c2ccccc2)CC1 | bin C |
| COc1ccc([C@@H](O)c2cc(-c3ncnc4cc(N5CCOCC5)ccc34)c(F)cc2Cl)nn1 + NC1CCC(NC2CC2c2ccccc2)CC1 | bin B |
| CC(C)c1c(-c2ccccc2)nc2c(C#N)c[nH]n2c1=O + NC1CCC(NC2CC2c2ccccc2)CC1 | bin C |
| COc1cc(Nc2ncc3c(n2)-c2ccc(Cl)cc2C(c2c(F)cccc2OC)=NC3)ccc1C(=O)O + NC1CCC(NC2CC2c2ccccc2)CC1 | bin A |
| Nc1ncn(C2CC(O)C(CO)O2)c(=O)n1 (stereo unspecified) + NC1CC1c1ccc(-c2cccc(O)c2)cc1 | bin B |

For COc1cc(Nc2ncc3c(n2)-c2ccc(Cl)cc2C(c2c(F)cccc2OC)=NC3)ccc1C(=O)O + NC1CC1c1ccc(-c2cccc(O)c2)cc1 , which viability, T/C bin applies? bin A

* * *

Test system: 653999-131-R-J2-PDC complex spheroid viability
Assay: Anticancer human tumor 653999-131-R-J2-PDC cell line growth inhibition;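 note: spheroids exposed to agents for seven days before readout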
Conditions: second compound 0.1 µM; first compound 0.1 µM; hits give low values
ENDPOINT: viability, T/C (%)
Note: unit % is implicit; provide only the numeric part.

| COMPOUND | RESULT UNITS | TEST VALUE |
| --- | --- | --- |
| CC(C)CC(NC(=O)CNC(=O)c1cc(Cl)ccc1Cl)B1OC(=O)CC(CC(=O)O)(C(=O)O)O1 (centres undefined) + NC1CCC(NC2CC2c2ccccc2)CC1 | % | 10.7 |
| CC(C)CC(NC(=O)C(Cc1ccccc1)NC(=O)c1cnccn1)B(O)O (centres undefined) + NC1CC1c1ccc(-c2cccc(O)c2)cc1 | % | 2.17 |

Notebook: CC1(C)CCC(CN2CCN(c3ccc(C(=O)NS(=O)(=O)c4ccc(NCC5CCOCC5)c([N+](=O)[O-])c4)c(Oc4cnc5[nH]ccc5c4)c3)CC2)=C(c2ccc(Cl)cc2)C1 + NC1CCC(NC2CC2c2ccccc2)CC1 , viability, T/C read as 82.4

Notebook: Cn1ncnc1C1c2n[nH]c(=O)c3cc(F)cc(c23)NC1c1ccc(F)cc1 (centres undefined) + NC1CCC(NC2CC2c2ccccc2)CC1 , viability, T/C read as 71.4

Notebook: COc1cc(Nc2ncc3c(n2)-c2ccc(Cl)cc2C(c2c(F)cccc2OC)=NC3)ccc1C(=O)O + NC1CC1c1ccc(-c2cccc(O)c2)cc1 , viability, T/C read as 62.1

* * *

System: 653999-131-R-J2-PDC complex spheroid viability
Assay: Anticancer human tumor 653999-131-R-J2-PDC cell line growth inhibition;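 note: spheroids exposed to agents for seven days before readout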
Conditions: second compound 3.16 µM; first compound 0.949 µM; hits give low values
ENDPOINT: viability, T/C (%)
Note: unit % is implicit; provide only the numeric part.

| MOLECULE | viability, T/C / % |
| --- | --- |
| NS(=O)(=O)OCC1CC(n2ccc3c(NC4CCc5ccccc54)ncnc32)CC1O (configuration not stated) + NC1CC1c1ccc(-c2cccc(O)c2)cc1 | 64.7 |

Param item: CCN(c1cc(-c2ccc(CN3CCOCC3)cc2)cc(C(=O)NCc2c(C)cc(C)[nH]c2=O)c1C)C1CCOCC1 + NC1CCC(NC2CC2c2ccccc2)CC1 ; param system: 653999-131-R-J2-PDC complex spheroid viability; output viability, T/C: 76.6

Param item: Nc1ccccc1NC(=O)c1ccc(CNC(=O)OCc2cccnc2)cc1 + NC1CC1c1ccc(-c2cccc(O)c2)cc1 ; param system: 653999-131-R-J2-PDC complex spheroid viability; output viability, T/C: 15.8

Param item: CCN(c1cc(-c2ccc(CN3CCOCC3)cc2)cc(C(=O)NCc2c(C)cc(C)[nH]c2=O)c1C)C1CCOCC1 + NC1CC1c1ccc(-c2cccc(O)c2)cc1 ; param system: 653999-131-R-J2-PDC complex spheroid viability; output viability, T/C: 89.3

* * *

Test system: 653999-131-R-J2-PDC complex spheroid viability
Assay: Anticancer human tumor 653999-131-R-J2-PDC cell line growth inhibition;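 note: spheroids exposed to agents for seven days before readout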
Details: second compound 3.16 µM; first compound 0.000949 µM; hits give low values
Measured viability, T/C of individual entries
Note: unit % is implicit; provide only the numeric part.

Solved cases (5 shown):
| COMPOUND | viability, T/C / % |
| --- | --- |
| Nc1ncn(C2CC(O)C(CO)S2)c(=O)n1 (stereo unspecified) + NC1CCC(NC2CC2c2ccccc2)CC1 | 99 |
| CCc1c2c(nc3ccc(O)cc13)-c1cc3c(c(=O)n1C2)COC(=O)[C@]3(O)CC + NC1CC1c1ccc(-c2cccc(O)c2)cc1 | 21.4 |
| CCc1c2c(nc3ccc(O)cc13)-c1cc3c(c(=O)n1C2)COC(=O)[C@]3(O)CC + NC1CCC(NC2CC2c2ccccc2)CC1 | 22.2 |
| Nc1ccn(C2OC(CO)C(O)C2(F)F)c(=O)n1 (stereo unspecified) + NC1CC1c1ccc(-c2cccc(O)c2)cc1 | 83.4 |
| Nc1ncn(C2CC(O)C(CO)S2)c(=O)n1 (stereo unspecified) + NC1CC1c1ccc(-c2cccc(O)c2)cc1 | 102 |

Lab note: next compound to report on.
Notebook: Nc1ccn(C2OC(CO)C(O)C2(F)F)c(=O)n1 (stereo unspecified) + NC1CCC(NC2CC2c2ccccc2)CC1 , viability, T/C read as 70.5
